tested on: Aeromonas hydrophila; assay: MIC against Gram-negative bacteria: Aeromonas hydrophila; type: cell-based; details: A. hydrophila; 10 h cultivation at 37° C.; 5×10^5 CFU/mL
assay-metric: MIC
Give the value; after it, write the unit.

substance | data-value
PRT417 (DVNECQRYPGRLCGHKCENTLGSYLCSCSVGFRLSVDGRSCE; listed as Homo sapiens) | 12.5 µg/mL
PRT420 (DIDECVTGIHNCSINETCFNIQGGFRCLAFECPENYRRSAATLQQEKTDTVRCI; listed as Homo sapiens) | 12.5 µg/mL
PRT317 (VTDYCQLVRYLCQNGRCIPTPGSCRCECNKGFQLDLRGECI; listed as Homo sapiens) | 25 µg/mL
PRT421 (DQDECLLLPGELCQHLCINTVGSYHCACFPGFSLQDDGRTCR; listed as Homo sapiens) | 50 µg/mL
PRT419 (DIDECALPTGGHICSYRCINIPGSFQCSCPSSGYRLAPNGRNCQ; listed as Homo sapiens) | 12.5 µg/mL

Can you look up the measured MIC of PRT412 (LNDRCRGGGPCKQQCRDTGDEVVCSCFVGYQLLSDGVSCE; listed as Homo sapiens) for me?
25 µg/mL

Can you look up the measured MIC of PRT437 (DEDECAAGNPCSHSCHNAMGTYYCSCPKGLTIAADGRTCQ; listed as Homo sapiens) for me?
25 µg/mL

----------
tested on: Proteus mirabilis; experiment: MIC against Gram-negative bacteria: Proteus mirabilis; assay type: cell-based; conditions: P. mirabilis; 10 h cultivation at 37° C.
assay-metric: MIC

The examples below pair each entry with its known result.
substance | measured-target | MIC
PRT978 (DVDECASQPCQHGGSCIDLVARYLCSCPPGTLGVLCE; listed as Homo sapiens) | Proteus mirabilis | 25 µg/mL
PRT1003 (STDYCVSAPCFNGGTCVNRPGTFSCLCAMGFQGPRCE; listed as Homo sapiens) | Proteus mirabilis | 50 µg/mL
PRT966 (PSHPCAHEPCSHGICYDAPGGFRCVCEPGWSGPRCS; listed as Homo sapiens) | Proteus mirabilis | 50 µg/mL
PRT920 (DVDECQLMPNACQNGGTCHNTHGGYNCVCVNGWTGEDCS; listed as Homo sapiens) | Proteus mirabilis | 50 µg/mL
PRT1028 (DENECATGFHRCGPNSVCINLPGSYRCECRSGYEFADDRHTCI; listed as Homo sapiens) | Proteus mirabilis | 50 µg/mL
PRT1036 (VEDKCEKACRPEEECLALNSTWGCFCRQDLNSSDVHSLQPQLDCG; listed as Homo sapiens) | Proteus mirabilis | 50 µg/mL

Can you look up the measured MIC of PRT926 (EINECQSNPCVNNGQCVDKVNRFQCLCPPGFTGPVCQ; listed as Homo sapiens) for me?
50 µg/mL

Can you look up the measured MIC of PRT949 (FVDVCPQMPCLNGGTCAVASNMPDGFICRCPPGFSGARCQ; listed as Homo sapiens) for me?
50 µg/mL

Can you look up the measured MIC of PRT1007 (HVNPCESRPCQNGATCMAQPSGYLCQCAPGYDGQNCS; listed as Homo sapiens) for me?
25 µg/mL

----------
test system: Serratia marcescens; assay: MIC against Gram-negative bacteria: Serratia marcescens; assay type: cell-based; settings: 96-well plate, 5×10^5 CFU/mL, 37° C., 10 h
assay-metric: MIC against S. marcescens (µg/mL)
Kindly answer with a numeric value in µg/mL, unit omitted.

The examples below pair each entry with its known result.
substance | unit-of-measurement | MIC against S. marcescens
PRT462 (DVDECLEGLDDCHYNQLCENTPGGHRCSCPRGYRMQGPS; listed as Homo sapiens) | µg/mL | 25
PRT518 (CACPLNIPSNNFSPTCHLDRSLGLICDGCPVGYTGPRCERCAEGYFGQPSVPGGSCQP; listed as Homo sapiens) | µg/mL | 12.5
PRT460 (DRDECSGGPSPCSHACLNAPGRFSCTCPTGFALAWDDRNCR; listed as Homo sapiens) | µg/mL | 12.5
PRT500 (CNCDPVGSLSSVCIKDDLHSDLHNGKQPGQCPCKEGYTGEKCDRCQLGYKDYPTCVS; listed as Homo sapiens) | µg/mL | 25
PRT520 (CRCNAGGSFSEVCHSQTGQCECRANVQGQRCDKCKAGTFGLQSARGCVP; listed as Homo sapiens) | µg/mL | 25

Query substance follows.
Can you look up the measured MIC against S. marcescens of PRT489 (CDNGGTWEQGQCACLPGFSGDRCQLQTRCQNG; listed as Homo sapiens) for me?
12.5
